- SYSTEM_TESTED: Beta-galactosidase (Escherichia coli) (UniProt Q8VNN2)
- Sequence (Q8VNN2 whole entry, looked up): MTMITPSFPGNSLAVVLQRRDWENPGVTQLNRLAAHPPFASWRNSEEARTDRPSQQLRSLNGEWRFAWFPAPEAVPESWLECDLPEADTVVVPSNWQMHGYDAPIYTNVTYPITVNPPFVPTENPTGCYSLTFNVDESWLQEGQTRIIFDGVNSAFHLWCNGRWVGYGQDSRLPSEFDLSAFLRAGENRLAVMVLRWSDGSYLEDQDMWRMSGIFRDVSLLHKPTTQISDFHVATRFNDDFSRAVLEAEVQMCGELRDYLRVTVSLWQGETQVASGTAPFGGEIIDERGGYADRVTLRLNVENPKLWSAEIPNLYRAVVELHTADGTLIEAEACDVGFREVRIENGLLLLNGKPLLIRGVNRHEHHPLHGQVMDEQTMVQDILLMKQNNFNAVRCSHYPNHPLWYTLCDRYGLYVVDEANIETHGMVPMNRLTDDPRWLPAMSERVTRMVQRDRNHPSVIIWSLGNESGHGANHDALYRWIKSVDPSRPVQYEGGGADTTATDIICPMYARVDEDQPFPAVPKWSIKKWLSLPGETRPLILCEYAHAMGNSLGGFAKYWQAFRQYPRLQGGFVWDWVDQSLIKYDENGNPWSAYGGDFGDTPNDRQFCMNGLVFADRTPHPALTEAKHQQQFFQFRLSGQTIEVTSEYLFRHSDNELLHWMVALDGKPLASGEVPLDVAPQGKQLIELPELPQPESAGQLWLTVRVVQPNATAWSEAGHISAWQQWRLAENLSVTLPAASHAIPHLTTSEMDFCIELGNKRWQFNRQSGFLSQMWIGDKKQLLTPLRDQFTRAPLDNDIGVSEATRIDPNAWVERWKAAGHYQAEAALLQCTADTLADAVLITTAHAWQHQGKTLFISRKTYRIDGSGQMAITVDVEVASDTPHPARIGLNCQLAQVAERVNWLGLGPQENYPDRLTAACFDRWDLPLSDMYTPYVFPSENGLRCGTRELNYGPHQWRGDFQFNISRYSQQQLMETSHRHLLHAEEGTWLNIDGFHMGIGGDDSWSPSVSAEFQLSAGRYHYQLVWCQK
- TEST: potency against CXCR6 with APJ panel – cell-based, beta-arrestin, DiscoveRx, uHTS hits, dose response (AID 624129)
- CONDITION_DETAILS: CXCR6 beta-arrestin (DiscoveRx) antagonist cell assay, b-galactosidase, dose range 1, mean IC50 across replicates
REPORTED_METRIC: IC50

Query (compound): O=[N+]([O-])c1ccc(Sc2cccc3cccnc23)c([N+](=O)[O-])c1 ; field requested: IC50
> 80 µM

Query (compound): O=C(NNC(=O)C12CC3CC(CC(C3)C1)C2)c1ccccn1 ; field requested: IC50
> 80 µM

Query (compound): CS(=O)(=O)c1ncc(Cl)c(C(=O)Nc2ccc3ccccc3c2)n1 ; field requested: IC50
> 80 µM

Query (compound): CCOc1cc(Br)c(Br)c(C=Nc2ccc(NC(C)=O)cc2)c1O ; field requested: IC50
> 80 µM

Query (compound): O=C(Nc1nc2c(F)cc(F)cc2s1)c1ccccn1 ; field requested: IC50
> 80 µM

Query (compound): COc1cc(C(=O)NC2CC3CCCC(C2)N3CC(=O)Nc2ccccc2)cc(OC)c1OC (stereo unspecified) ; field requested: IC50
> 80 µM

Query (compound): Cc1ccc(/C=N/NC(=S)N2CCOCC2)cc1 ; field requested: IC50
> 80 µM

Query (compound): CS(=O)(=O)c1ccc(C(=O)OCc2nnc(-c3ccccc3)o2)cc1[N+](=O)[O-] ; field requested: IC50
> 80 µM

Query (compound): CCC(C)c1ccc(O)c(NC(=S)NC(=O)c2cccnc2)c1 (stereo unspecified) ; field requested: IC50
56 µM

Query (compound): CC(Oc1ccc(F)cc1)C(=O)Nc1nc(-c2ccccn2)cs1 (stereo unspecified) ; field requested: IC50
> 80 µM

Query (compound): Cc1cc(S(=O)(=O)c2ccc(Cl)cc2)nc(S(=O)(=O)c2ccc(Cl)cc2)c1C#N ; field requested: IC50
50.1 µM
